# Run Description: self-splicing fitness, log relative to wild type (ln ratio); higher = more splicing; Tetrahymena group I intron in knt gene, E. coli kanamycin selection, DiMSum; sequences stand for … in CUCUCU…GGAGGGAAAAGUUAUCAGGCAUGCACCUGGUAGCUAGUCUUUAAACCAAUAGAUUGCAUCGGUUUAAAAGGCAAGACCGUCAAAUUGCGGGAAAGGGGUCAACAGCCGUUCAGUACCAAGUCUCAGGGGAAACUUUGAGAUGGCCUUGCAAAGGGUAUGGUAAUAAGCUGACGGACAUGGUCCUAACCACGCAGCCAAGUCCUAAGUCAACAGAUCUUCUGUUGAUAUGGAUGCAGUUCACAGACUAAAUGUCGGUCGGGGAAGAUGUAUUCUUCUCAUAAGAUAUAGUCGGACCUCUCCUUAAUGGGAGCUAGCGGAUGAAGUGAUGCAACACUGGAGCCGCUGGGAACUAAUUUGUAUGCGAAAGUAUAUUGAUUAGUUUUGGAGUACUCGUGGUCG;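 further: selection with 25 µg/mL kanamycin versus none on LB agar overnight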
# Stated Conditions: 37 °C
Property Measured: self-splicing fitness (ln)

seq_text=CAGUAGCAAUAUUACGCCAA readout_value=-2.91
seq_text=CGUAAGCAAUAUUACGGGCA readout_value=-1.09
seq_text=CUAAAGCAAUAUUACGGUCC readout_value=-2.2
seq_text=CCGAAGCAAUAUUACGCAAU readout_value=-1.94
seq_text=CAUAAGCAAUAUUACGACGG readout_value=-0.00998
seq_text=UAUAAGCAAUAUUACGGCAA readout_value=-0.0869
seq_text=GUCCAGCAAUAUUACGCUAA readout_value=0.303
seq_text=GUAGAGCAAUAUUACGUCAG readout_value=-2.07
seq_text=GUCAAGCAAUAUUACGCGCC readout_value=-1.95
seq_text=CCGCAGCAAUAUUACGGGAC readout_value=-2.65
seq_text=UCUCAGCAAUAUUACGCGCC readout_value=-1.25
seq_text=GGAAAGCAAUAUUACGGACU readout_value=-0.961
seq_text=CUGGAGCAAUAUUACGAACG readout_value=0.129
seq_text=ACUUAGCAAUAUUACGGAUG readout_value=-1.53
seq_text=UGACAGCAAUAUUACGGUCA readout_value=-0.408
